# measured-on: Prostaglandin G/H synthase 1 (Ovis aries)
# experiment: Inhibition of PGH synthase was determined by measuring oxygen consumption with a Clark oxygen electrode at 25 uM
# Set-up: scale not given: the % may be the effect or the level left
observable: Control (%)

For orientation, consider the following solved cases.
>>> observed_result("CC(C)(C#N)C1C(=O)N(c2ccccc2)N(c2ccccc2)C1=O")
23
>>> observed_result("CC(=C1C(=O)N(c2ccccc2)N(c2ccccc2)C1=O)c1ccccc1")
73
>>> observed_result("O=C1C(CC#CCCl)C(=O)N(c2ccccc2)N1c1ccccc1")
35
>>> observed_result("CC(C)=C1C(=O)N(c2ccccc2)N(c2ccccc2)C1=O")
89

[P] O=C(NCCC1C(=O)N(c2ccccc2)N(c2ccccc2)C1=O)Oc1ccccc1
[Q] CCCC=C1C(=O)N(c2ccccc2)N(c2ccccc2)C1=O
[R] CCC(C)=C1C(=O)N(c2ccccc2)N(c2ccccc2)C1=O
Task item: Rank the 3 compounds: largest Control first, smallest last. // rank by listing labels in the order requested
Reply: P, R, Q
(P: 78%, R: 49%, Q: 29%)
